System: lung cancer (H299-GL, H522-GL, H647-GL, A549-GL, H1993, H1075-GL, H1373-GL H1703 cells)
Assay: toxicity by alamarBlue, lung cancer cell lines
Type: cell-based
Conditions: mean of 8 cell lines, 48 h exposure
Description: Dilutions of DMSO without compound were used as a control. After 18 hrs or 2 days, the cultures were pulsed with 6 μl of alamarBlue® (Invitrogen Inc. Grand Island, N.Y.) and incubated overnight. The alamarBlue® provides a cell growth indicator based on detection of metabolic activity. […] The fluorescence intensity was measured using a Synergy H1 Microplate Reader (Biotek Inc, Winooski, VT) and a dose-response curve established for IC50 determination.
Listed here are compounds together with their documented Estimated lethal doses (LD50).
// units = µM; emit number, no label

Consider the reported Estimated lethal doses (LD50) for these compounds:
{"columns": ["COMPOUND", "SCALE UNIT", "Estimated lethal doses (LD50)"],
 "data": [
  ["CO[C@H]1/C=C/CCCCCOC/C(C)=C\\[C@@H](C)[C@@H]1OCC(=O)O [CME, Carboxymethyl migraether]", "µM", 697.9],
  ["CCNC(=O)O[C@H]1[C@H](C)/C=C(/C)COCCCCC/C=C/[C@@H]1OC [Compound 45]", "µM", 446.8]
]}

Quick one: Estimated lethal doses (LD50) of CO[C@H]1/C=C/CCCCCOC/C(C)=C\[C@@H](C)[C@@H]1OCCO [Compound 43] ?
510.7

Then CNC(=O)CO[C@H]1[C@H](C)/C=C(/C)COCCCCC/C=C/[C@@H]1OC [Compound 44] ?
316.7

Consider next the compound COC(=O)CO[C@H]1[C@H](C)/C=C(/C)COCCCCC/C=C/[C@@H]1OC [Compound 42] in the same way.
602.7

Now give it for CO[C@H]1/C=C/CCCCCOC/C(C)=C\[C@@H](C)[C@@H]1O [ME, migrastatin ether] too.
639.8

These entries and their values trace back to patent US9303009B2.
